Target: NR2F6 (Homo sapiens)
Construct: expressed in transfected cells; also transient transfection
Assay: NR2F6 agonist screening, Firefly signal cmpd/DMSO
Assay type: cell-based
Conditions: Table 12; repeat 2
measurement_label: Firefly, cmpd/DMSO repeat 2
The answer should be written as a number, with no unit following it.

// Input: CCOc1cccc2cc(S(=O)(=O)c3cccc(Cl)c3)c(=O)oc12 . Output its Firefly, cmpd/DMSO repeat 2 only.
7.9

// Input: Cc1ccc(NC(=O)c2ccc3oc(=O)c(S(=O)(=O)c4ccccc4)cc3c2)c(C)c1 . Output its Firefly, cmpd/DMSO repeat 2 only.
19.6

// Input: Cc1ccccc1NC(=O)c1ccc2oc(=O)c(S(=O)(=O)c3ccc(F)cc3)cc2c1 . Output its Firefly, cmpd/DMSO repeat 2 only.
20.2

====

Molecular target: NR2F6 (Homo sapiens)
Construct: expressed in transfected cells; also transient transfection
Assay: NR2F6 agonist screening, Firefly signal cmpd/DMSO
Type: cell-based
Settings: F4; 10% FBS; 0.5 uM
Kindly state Firefly, F4, 10% FBS, cmpd/DMSO (mean) for each of the entries shown.
The answer should be written as a number, with no unit following it.

Give NR2F6 (Homo sapiens) Firefly, F4, 10% FBS, cmpd/DMSO (mean) for the following compound: O=S1(=O)C[C@H](N2CCCC2)[C@@H](S(=O)(=O)c2ccc(Cl)cc2)C1
1.5

Give NR2F6 (Homo sapiens) Firefly, F4, 10% FBS, cmpd/DMSO (mean) for the following compound: C[C@@H]1C[C@H](C)CN([C@H]2CS(=O)(=O)C[C@@H]2S(=O)(=O)c2ccccc2)C1
1.2

Give NR2F6 (Homo sapiens) Firefly, F4, 10% FBS, cmpd/DMSO (mean) for the following compound: O=S1(=O)C[C@H](NC2CCCCC2)[C@@H](S(=O)(=O)c2ccc(Cl)cc2)C1
1.2

Give NR2F6 (Homo sapiens) Firefly, F4, 10% FBS, cmpd/DMSO (mean) for the following compound: O=S1(=O)C[C@H](NCc2ccco2)[C@@H](S(=O)(=O)c2cccs2)C1
1.0

Give NR2F6 (Homo sapiens) Firefly, F4, 10% FBS, cmpd/DMSO (mean) for the following compound: CCCCN(C)[C@H]1CS(=O)(=O)C[C@@H]1S(=O)(=O)c1ccc(Cl)cc1
0.9

Give NR2F6 (Homo sapiens) Firefly, F4, 10% FBS, cmpd/DMSO (mean) for the following compound: CC1CCN([C@H]2CS(=O)(=O)C[C@@H]2S(=O)(=O)c2cccs2)CC1
1.6

Give NR2F6 (Homo sapiens) Firefly, F4, 10% FBS, cmpd/DMSO (mean) for the following compound: COc1ccc(CCN[C@H]2CS(=O)(=O)C[C@@H]2S(=O)(=O)c2ccc(Cl)cc2)cc1OC
1.1

Give NR2F6 (Homo sapiens) Firefly, F4, 10% FBS, cmpd/DMSO (mean) for the following compound: CCC(C)N[C@H]1CS(=O)(=O)C[C@@H]1S(=O)(=O)c1ccc(C)cc1 (stereo partly drawn)
1.7

Give NR2F6 (Homo sapiens) Firefly, F4, 10% FBS, cmpd/DMSO (mean) for the following compound: O=S1(=O)C[C@H](NCC2CCCO2)[C@@H](S(=O)(=O)c2cccs2)C1 (stereo partly drawn)
1.1

Give NR2F6 (Homo sapiens) Firefly, F4, 10% FBS, cmpd/DMSO (mean) for the following compound: Cc1cccc(CN[C@H]2CS(=O)(=O)C[C@@H]2S(=O)(=O)c2ccc(Cl)cc2)c1
1.2

Give NR2F6 (Homo sapiens) Firefly, F4, 10% FBS, cmpd/DMSO (mean) for the following compound: CC(=O)Nc1ccc(S(=O)(=O)[C@H]2CS(=O)(=O)C[C@@H]2NC2CC2)cc1
1.5

Give NR2F6 (Homo sapiens) Firefly, F4, 10% FBS, cmpd/DMSO (mean) for the following compound: CCCN[C@H]1CS(=O)(=O)C[C@@H]1S(=O)(=O)c1ccc(Cl)cc1
0.9

====

Target: NR2F6 (Homo sapiens)
Construct: expressed in transfected cells; also transient transfection
Assay: NR2F6 agonist screening, Firefly signal cmpd/DMSO
Assay type: cell-based
Conditions: 10 uM; clone F4
Entries are sorted into classes by Firefly F4, cmpd/DMSO (mean) as follows: I = under 0.8, II = from 0.8 up to 1, III = 1 and over

Tag the class for N#Cc1c(C(F)(F)F)nc2ccc(Cl)cc2c1NC1CC1
I

Tag the class for CCOC(=O)c1cnc2c(Cl)cc(Cl)cc2c1NCCCN(C)C
III

Tag the class for Cc1cc(C)c2ncc(C(=O)O)c(NCCCN(C)C)c2c1
II

Tag the class for CC1CCN(c2nc(NCCN3CCOCC3)nc(N3CC4CC(C3)c3cccc(=O)n3C4)n2)CC1 (stereo not shown)
II

Tag the class for CCOC(=O)c1cnc2c(Cl)cc(Cl)cc2c1NCCCN1CCCCC1
III

Tag the class for O=c1cccc2n1CC1CC2CN(c2nc(NCCC3=CCCCC3)nc(N3CCOCC3)n2)C1 (stereo not shown)
II

Tag the class for N#Cc1c(C(F)(F)F)nc2ccc(Oc3ccccc3)cc2c1NCCc1ccc(Cl)cc1
I

Tag the class for N#CC1=C(N)n2nc(-c3ccccc3)cc2NC1(c1ccc(N2CCOCC2)cc1)C(F)(F)F (stereo not shown)
I

Tag the class for CNC(=O)c1cnc2c(C)cc(C)cc2c1NCCCN(C)C
III

Tag the class for CC1CCN(c2nc(N3CCC(C)CC3)nc(N3CCn4c(cccc4=O)C3)n2)CC1
I

Tag the class for Cc1ccc(CCCNc2c(C#N)c(C(F)(F)F)nc3ccc(Oc4ccccc4)cc23)cc1
II

Tag the class for Cc1cc(C)c2ncc(C(=O)OC(C)C)c(NCCCN(C)C)c2c1
III

Tag the class for N#Cc1c(C(F)(F)F)nc2ccc(Oc3ccccc3)cc2c1N1CCNCC1
I

Tag the class for CNc1c(C#N)c(C(F)(F)F)nc2ccc(Oc3ccccc3)cc12
I

Tag the class for O=c1c(Cl)c(Cl)cnn1-c1ccccc1
III

Tag the class for Cc1cc(C)c2ncc(C(=O)N3CCCC3)c(NCCCN(C)C)c2c1
II

Tag the class for O=c1cccc2n1CC1CC2CN(c2nc(NCCC3=CCCCC3)nc(N3CCCC3)n2)C1 (stereo not shown)
III

Tag the class for CCOC(=O)c1cnc2c(C)cc(C)cc2c1N1CCCC(N(C)C)C1 (stereo not shown)
III

Tag the class for COc1ccc2nc(C(F)(F)F)c(C#N)c(NCCOc3ccc(Cl)cc3)c2c1
I

Tag the class for CCOC(=O)c1cnc2c(Cl)cc(Cl)cc2c1NCCCN1CCCC1
III

Tag the class for COc1ccc(-c2cc3n(n2)C(N)=C(C#N)C(c2ccc(N4CCOCC4)cc2)(C(F)(F)F)N3)cc1OC (stereo not shown)
III

====

Biological target: NR2F6 (Homo sapiens, UniProt P10588)
Construct: expressed in transfected cells; also transient transfection
Sequence (P10588 whole entry): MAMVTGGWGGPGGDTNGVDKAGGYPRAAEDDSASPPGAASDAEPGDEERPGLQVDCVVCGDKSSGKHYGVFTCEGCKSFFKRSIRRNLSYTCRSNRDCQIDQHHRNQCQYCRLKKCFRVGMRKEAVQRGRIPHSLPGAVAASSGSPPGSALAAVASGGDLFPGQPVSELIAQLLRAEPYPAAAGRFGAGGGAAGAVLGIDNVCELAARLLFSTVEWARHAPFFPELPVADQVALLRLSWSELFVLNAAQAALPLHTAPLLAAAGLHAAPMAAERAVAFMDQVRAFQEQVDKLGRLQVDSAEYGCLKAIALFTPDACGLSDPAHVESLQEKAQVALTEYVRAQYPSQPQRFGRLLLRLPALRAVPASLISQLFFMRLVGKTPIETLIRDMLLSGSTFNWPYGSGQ
Experiment: NR2F6 agonist screening, Firefly signal cmpd/DMSO
Type: cell-based
Conditions: F4; 10% FBS; 2 uM
measurement_label: Firefly, F4, 10% FBS, cmpd/DMSO (mean)
The answer should be written as a number, with no unit following it.

// Input: CC(=O)N1CCN([C@H]2CS(=O)(=O)C[C@@H]2S(=O)(=O)c2ccc(F)c(C)c2)CC1 . Output its Firefly, F4, 10% FBS, cmpd/DMSO (mean) only.
1.4

// Input: O=S1(=O)C[C@H](NC2CCCCC2)[C@@H](S(=O)(=O)c2ccccc2)C1 . Output its Firefly, F4, 10% FBS, cmpd/DMSO (mean) only.
1.6

// Input: CC(C)N[C@H]1CS(=O)(=O)C[C@@H]1S(=O)(=O)c1ccc(Cl)cc1 . Output its Firefly, F4, 10% FBS, cmpd/DMSO (mean) only.
1.3

// Input: COCCCN[C@H]1CS(=O)(=O)C[C@@H]1S(=O)(=O)c1ccc(Cl)cc1 . Output its Firefly, F4, 10% FBS, cmpd/DMSO (mean) only.
1.0

// Input: COCCN[C@H]1CS(=O)(=O)C[C@@H]1S(=O)(=O)c1ccc(Cl)cc1 . Output its Firefly, F4, 10% FBS, cmpd/DMSO (mean) only.
1.4

====

Biological target: NR2F6 (Homo sapiens, UniProt P10588)
Construct: expressed in transfected cells; also transient transfection
Experiment: NR2F6 agonist screening, Firefly signal cmpd/DMSO
Type: cell-based
Conditions: Table 14; 2 uM
Kindly state Firefly F4, cmpd/DMSO (mean) for each of the entries shown.
The answer should be written as a number, with no unit following it.

Give NR2F6 (Homo sapiens, UniProt P10588) Firefly F4, cmpd/DMSO (mean) for the following compound: O=C(Nc1cccc(O)c1)c1cc(-c2ccc(Cl)c(Cl)c2)on1
0.9

Give NR2F6 (Homo sapiens, UniProt P10588) Firefly F4, cmpd/DMSO (mean) for the following compound: Cc1cc(C)c2ncc(C(N)=O)c(NCCCN(C)C)c2c1
1.2

Give NR2F6 (Homo sapiens, UniProt P10588) Firefly F4, cmpd/DMSO (mean) for the following compound: CCn1cc2c(n1)c(=O)n(Cc1ccccc1)c(=O)n2CC(=O)Nc1ccc(Br)cc1
0.9

Give NR2F6 (Homo sapiens, UniProt P10588) Firefly F4, cmpd/DMSO (mean) for the following compound: Cc1cc(C)nc(Sc2nnc(-c3ccc(C)c(S(=O)(=O)N4CCOCC4)c3)c3ccccc23)n1
1.2

Give NR2F6 (Homo sapiens, UniProt P10588) Firefly F4, cmpd/DMSO (mean) for the following compound: Cc1cc(C)n2nc(CNS(=O)(=O)c3c(F)c(F)c(F)c(F)c3F)nc2n1
1.1

Give NR2F6 (Homo sapiens, UniProt P10588) Firefly F4, cmpd/DMSO (mean) for the following compound: Cc1ccn2cc(-c3ccc(F)cc3)cc2c1
1.9

Give NR2F6 (Homo sapiens, UniProt P10588) Firefly F4, cmpd/DMSO (mean) for the following compound: Cc1ccc(NC(=O)c2noc3c2CC(C)CC3)cc1C (stereo not drawn)
1.0

Give NR2F6 (Homo sapiens, UniProt P10588) Firefly F4, cmpd/DMSO (mean) for the following compound: Cc1cc(C)n2nc(CNS(=O)(=O)c3ccc(F)cc3)nc2n1
0.7

Give NR2F6 (Homo sapiens, UniProt P10588) Firefly F4, cmpd/DMSO (mean) for the following compound: Cc1ccc(NC(=O)c2noc3c2CC(C(C)(C)C)CC3)cc1C (stereo not drawn)
1.2
